Target: T1, Mcl-1, Q07820
T1 chain: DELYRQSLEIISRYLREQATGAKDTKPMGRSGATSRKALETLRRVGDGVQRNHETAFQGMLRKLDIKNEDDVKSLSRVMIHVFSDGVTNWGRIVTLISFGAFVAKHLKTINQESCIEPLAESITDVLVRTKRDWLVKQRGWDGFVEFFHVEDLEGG
Assay: peptide SPOT array, c-Myc-tagged receptor at 1 uM or 100 nM, anti-c-Myc-Cy3
property-name: SPOT signal as a fraction of Bim BH3's signal on the same receptor and array

## Input Answer with reported SPOT signal as a fraction of Bim BH3's signal on the same receptor and array of RVCPYYLSRNLKQQADIIFMPYNYLL [RTEL1]
## Output 1.42

## Input Indicate its recorded SPOT signal as a fraction of Bim BH3's signal on the same receptor and array; the binder in question is IGFFIAFGIADGKMGDQAKLMVDFFN [SLC1A2]
## Output 0.01

## Input Report measured SPOT signal as a fraction of Bim BH3's signal on the same receptor and array; entry is PFNKEELTAILKFGAEDLFKELEGEE [CHD2]
## Output 0.01

## Input Quote SPOT signal as a fraction of Bim BH3's signal on the same receptor and array reported for DPLNDNVATLLHQSSDRFVAELWKDV [MYH10] please.
## Output 0.02

## Input Give SPOT signal as a fraction of Bim BH3's signal on the same receptor and array for RLRQLGVAKKFGVLSDNFKGKRIVLV [PPAT]
## Output 1.04

## Input Kindly indicate its recorded SPOT signal as a fraction of Bim BH3's signal on the same receptor and array. Item: SALETQVAAAVQALADDYLAQLSLEP [TRO]
## Output 0.01

## Input Indicate the recorded SPOT signal as a fraction of Bim BH3's signal on the same receptor and array value for this binder: PPDAHVLGKALEAALQDFSLDLRSTG [CIITA]
## Output 0.02

## Input Could you please provide reported SPOT signal as a fraction of Bim BH3's signal on the same receptor and array for FRFAQLCGLHIVIHLDELEELMCYYQ [CLTCL1] ? Thanks!
## Output 0.03

## Input For the binder CYRGQLAASVLRQISRELGPQEPTGS [FAM129C] , report SPOT signal as a fraction of Bim BH3's signal on the same receptor and array.
## Output 0.07

## Input Return SPOT signal as a fraction of Bim BH3's signal on the same receptor and array (reported value) for this binder: SKFVILSAHKDVFIGDTLTRQVTAQD [NEDD9]
## Output 0.02
